tested on: U-937; assay: cells; conditions: Homo sapiens, U-937, 48 h
Description: Antiproliferative activity against human U937 cells after 48 hrs by MTT assay
Answer each item with its documented pIC50.
On this scale, pIC50 is minus log10 of a concentration expressed in M (mol/L).

**Query** Would you kindly share the measured pIC50 for Nc1ccn([C@@H]2O[C@H](CO)[C@@H](O)C2(F)F)c(=O)n1 [GEMCITABINE] ?
**Result** 7.15

**Query** Bench note: what pIC50 did `CC(C)C[C@H](NC(=O)[C@@H](O)[C@H](N)Cc1ccccc1)C(=O)Nc1ccn([C@@H]2O[C@H](CO)[C@@H](O)C2(F)F)c(=O)n1.Cl` show?
**Result** 7.10
